Hey, just so you know, these numbers are from patent US20250197488A1.

Here the recorded kon is given for each entry.
# System tested: T1, human IL-11 (AAH12506.1, Pro22-Leu199) (human, UniProt P20809 22-199)
# T1 construct: The range Pro22-Leu199 counts on AAH12506.1; The Octet runs say only 'human IL-11'; also called hIL-11
# T1 chain: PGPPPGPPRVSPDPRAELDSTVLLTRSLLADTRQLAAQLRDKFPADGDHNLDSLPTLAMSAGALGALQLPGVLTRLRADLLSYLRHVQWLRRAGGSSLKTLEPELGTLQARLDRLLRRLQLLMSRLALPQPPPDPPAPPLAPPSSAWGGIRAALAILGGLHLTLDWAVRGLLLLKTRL
# Test protocol: BLI (Octet), antibody captured, human IL-11 in solution
Report the figure in M⁻¹ s⁻¹ without appending any unit label.

Illustrative cases are given below, each with its answer.
- Binder: "hz18A10-VHm2 + hz18A10-VL (antibody, V domains shown, Constant regions not restated for this antibody) VH: EVQLVQSGAEVKKPGASVKVSCKASGYTFTTYNMDWVRQAPGQGLEWMGTIYPGNGDTSYNQKFKGRVTMTRDTSTSTVYMELSSLRSEDTAVYYCARGDLHYLDYWGQGTLVTVSS VL: DIQMTQSPSSLSASVGDRVTITCKASQSVSNDVAWYQQKPGKAPKLLIYSASNRYTGVPSRFSGSGSGTDFTFTISSLQPEDIATYYCQHDYSSPYTFGQGTKLEIK"
  Units: "M⁻¹ s⁻¹"
  kon: 692000
- Binder: "hz18A10-VH + hz18A10-VLm10 (antibody, V domains shown, Constant regions not restated for this antibody) VH: EVQLVQSGAEVKKPGASVKVSCKASGYTFTTYNMDWVRQAPGQGLEWMGTIYPGNGDTSYNQKFKGRVTMTRDTSTSTVYMELSSLRSEDTAVYYCARGDLYALDYWGQGTLVTVSS VL: DIQMTQSPSSLSASVGDRVTITCKASQSVSNDLAWYQQKPGKAPKLLIYSASNRYTGVPSRFSGSGSGTDFTFTISSLQPEDIATYYCQHDYSSPYTFGQGTKLEIK"
  Units: "M⁻¹ s⁻¹"
  kon: 727000

Next item in the queue.
Task: Supply reported kon belonging to this binder: hz18A10-VHm12 + hz18A10-VLm19 (antibody, V domains shown, Constant regions not restated for this antibody) VH: EVQLVQSGAEVKKPGASVKVSCKASGYTFTHYDMDWVRQAPGQGLEWMGTIYPGNGDTSYNQKFKGRVTMTRDTSTSTVYMELSSLRSEDTAVYYCARGDLYALDYWGQGTLVTVSS VL: DIQMTQSPSSLSASVGDRVTITCKASQSVYRDVAWYQQKPGKAPKLLIYSASNRYTGVPSRFSGSGSGTDFTFTISSLQPEDIATYYCQHDYSSPYTFGQGTKLEIK
Result: 934000
